meta.source: ChEMBL document CHEMBL4308877

# System: Leishmania amazonensis
# test_protocol: Anti-parasitic activity against axenic amastigote stage of Leishmania amazonensis MHOM/BR/Josefa […] after 72 hrs by Neubauer chamber method
# Type: functional, organism-based
reported_endpoint: pIC50
Answers are plain numbers, as −log10 of the molar value.

The value of pIC50 measured for the compound CC1=CC[C@@H](C(C)(C)NC(=S)N/N=C/c2ccc([N+](=O)[O-])cc2)CC1 turned out to be 5.10

====

# test_protocol: Selectivity index, ratio of CC50 for mouse macrophages to IC50 for amastigote stage of Leishmania amazonensis WHOM/00 LTB 0016
# Assay type: toxicity
# study_conditions: read-out: Ratio CC50/IC50
Answer each item with its documented selectivity ratio.
Answers are plain numbers.

Answered examples (2):
item_smiles | selectivity ratio
NC(=S)N/N=C(/COc1ccccc1)c1ccc(Cl)cc1 | 2.77
COc1ccc(/C(COc2ccccc2)=N\NC(N)=S)cc1 | 4.5

Shift focus to the following entry.
The value of selectivity ratio measured for the compound NC(=S)N/N=C(/COc1ccccc1)c1ccccc1 turned out to be 4.94

====

# System: Trypanosoma cruzi
# test_protocol: Anti-parasitic activity against trypomastigote stage of Trypanosoma cruzi Y infected in monkey LLC-MK2 cells after 24 hrs
# Format: functional, organism-based
# study_conditions: LLC-MK2, 24 h
reported_endpoint: pIC50
Numbers only, as −log10 of the molar value.

molecule | subject_of_test | pIC50
CCC1S/C(=N/N=C(/COc2ccccc2)c2ccc(-c3ccccc3)cc2)NC1=O (configuration not stated) | Trypanosoma cruzi | 4.97

Shift focus to the following entry.
The value of pIC50 measured for the molecule CCC1S/C(=N/N=C(/COc2ccccc2)c2ccc(Br)cc2)NC1=O (configuration not stated) turned out to be 5.40

====

# test_protocol: Selectivity index, ratio of IC50 for HEK293T cells to IC50 for Trypanosoma brucei brucei AnTat1.1E
# Type: toxicity
# study_conditions: human
reported_endpoint: selectivity ratio
Give bare numbers.

The value of selectivity ratio measured for the compound O=c1c2ccccc2sn1-c1ccccc1 turned out to be 174

====

# Test system: Trypanosoma brucei brucei
# test_protocol: Anti-parasitic activity against trypomastigote stage of Trypanosoma brucei brucei
# Assay type: functional, organism-based
reported_endpoint: IC50 (µM)
One number for each entry, in µM.

The value of IC50 measured for the molecule CC1=C/C(=N/NC(=S)Nc2ccccc2)C(C(C)C)CC1 (stereo unspecified) turned out to be 10.9

====

# test_protocol: Selectivity index, ratio of IC50 for HEK293T cells to IC50 for Trypanosoma brucei gambiense MBA
# Format: toxicity
# study_conditions: human
reported_endpoint: selectivity ratio
Answers are plain numbers.

The value of selectivity ratio measured for the compound O=c1c2ccccc2sn1-c1ccccc1 turned out to be 262

====

# Test system: Trypanosoma cruzi
# test_protocol: Anti-parasitic activity against epimastigote stage of Trypanosoma cruzi Tulahuen 2 measured at day 5
# Assay type: functional, organism-based
# study_conditions: Tulahuen 2, 120 h
reported_endpoint: IC50

The value of IC50 measured for the molecule C=CCn1c(C(=O)N2CCN(C/C=C/c3ccccc3)CC2)cs\c1=N/N=C/C=C/c1ccco1 turned out to be 3.1 µM

====

Answer each item with its documented pIC50.
# Test system: Trypanosoma brucei
# test_protocol: Anti-parasitic activity against type 1 nitroreductase over-expressing Trypanosoma brucei
# Type: functional, organism-based
Numbers only, as −log10 of the molar value.

Answered examples (2):
molecule | pIC50
CC(=O)Nc1ncc([N+](=O)[O-])s1 [NITHIAMIDE] | 6.24
CCCC(=O)Nc1ncc([N+](=O)[O-])s1 | 6.19

Shift focus to the following entry.
The value of pIC50 measured for the molecule CCCCC(=O)Nc1ncc([N+](=O)[O-])s1 turned out to be 6.24

====

# test_protocol: Selectivity index, ratio of CC50 for mouse macrophages to IC50 for promastigote stage of Leishmania amazonensis WHOM/00 LTB 0016
# Format: toxicity
# study_conditions: read-out: Ratio CC50/IC50
reported_endpoint: selectivity ratio
Give bare numbers.

Answered examples (2):
item_smiles | selectivity ratio
COc1ccc(/C(COc2ccccc2)=N\NC(N)=S)cc1 | 44.4
NC(=S)N/N=C(/COc1ccccc1)c1ccccc1 | 71.1

The value of selectivity ratio measured for the compound NC(=S)N/N=C(/COc1ccccc1)c1ccc(Cl)cc1 turned out to be 22.8

====

# test_protocol: Selectivity index, ratio of EC50 for human U-937 cells to IC50 for amastigote stage of EGFP-fused Leishmania panamensis MHOM/CO/87/UA140
# Assay type: toxicity
# study_conditions: read-out: Selectivity Index
reported_endpoint: selectivity ratio
Numbers only.

molecule | selectivity ratio
NC(=O)N/N=C1\CC(c2ccccc2)Sc2ccccc21 (configuration not stated) | 18.6

Shift focus to the following entry.
The value of selectivity ratio measured for the molecule O=C(N/N=C1\CC(c2ccccc2)Sc2ccccc21)c1ccncc1 (configuration not stated) turned out to be 33.9

====

# System: Trypanosoma cruzi
# test_protocol: Anti-parasitic activity against trypomastigote stage of Trypanosoma cruzi Y infected in monkey LLC-MK2 cells after 24 hrs
# Format: functional, organism-based
# study_conditions: LLC-MK2, 24 h
reported_endpoint: pEC50
Answers are plain numbers, as −log10 of the molar value.

The value of pEC50 measured for the compound N/C(S)=N/N=C/c1ccc([N+](=O)[O-])cc1 turned out to be 5.84
